system: RXF 631; test: NCI tumour cell line growth inhibition, 48 h
Calls of active or inactive are those of the source. Cut-off read from the data, not from the text of the source: active = GI50 up to about 1.1 µM and inactive = higher.
Assay readout: GI50

Look at this molecule and give its reported GI50. `O=C1C=C(Br)c2c(-c3ccccc3)oc3cccc1c23`
46.8 µM (inactive)

Entry `CC1(C)OCC[C@@H]1[Si](C)(C)C` : reported GI50 = ?
> 100 µM (inactive)

What value of GI50 has been recorded for this entry: `CCOC(=O)c1cc(-c2ccc(-c3cc(C(=O)OCC)c(C#N)c(N)c3C#N)cc2)c(C#N)c(N)c1C#N`
> 100 µM (inactive)

For `O=[N+]([O-])c1ccc(Sc2c3ccccc3nc3cc(Cl)ccc23)cc1` , what is its reported GI50?
> 10 µM (inactive)

Please look up its GI50: `O=C(CC(=O)c1cccc2ccccc12)C(=O)Nc1ccc(Cl)cc1`
> 100 µM (inactive)

State the recorded GI50 for this entry: O=C(NC1C(=O)NNC1c1cccc([N+](=O)[O-])c1)c1ccccc1 (centres undefined)
> 100 µM (inactive)

Which GI50 reading was recorded for the molecule `C=C(Br)N(CC)CC` ?
> 100 µM (inactive)

I am curious: what GI50 value has been reported for CC1=Nc2ccccc2C12C(c1ccccc1)C(c1ccccc1)C(=O)N1c3ccccc3CC12 (centres undefined) ?
> 100 µM (inactive)

Any idea what GI50 was measured for O=C1OCc2c1cc1ccc(O)c(OC3OC(CO)C(O)C(O)C3O)c1c2-c1ccc2c(c1)OCO2 (centres undefined) ?
> 100 µM (inactive)

###

test system: HOP-92; assay: NCI tumour cell line growth inhibition, 48 h
Active and inactive are the calls of the source. Cut-off read from the data, not from the text of the source: active = GI50 up to about 1.1 µM and inactive = higher.
Consider the following compounds; for each one, report its GI50.

Which GI50 value is on record for `CCc1nc(N)nc(N)c1-c1ccc(Cl)c(Cl)c1` ?
13.3 µM (inactive)

Need GI50 of `Cc1ccc(-c2nnc3s/c(=C\c4ccc(N(C)C)cc4)c(=O)n23)cc1` , thanks.
> 100 µM (inactive)

Return reported GI50; argument: Nc1nc(Cl)c(N)c(NCC2(CO)CCC(OCc3ccccc3)C2)n1 (stereo unspecified)
> 100 µM (inactive)

Fill in: GI50 of `CCOC(=O)/C(C(N)=O)=C(O)/C(O)=C/C(=O)c1ccc(Cl)cc1` is ___
21.8 µM (inactive)

What value of GI50 has been recorded for this entry: `C/C(CC(=O)Nc1ccccc1[N+](=O)[O-])=N\NC(N)=O`
> 100 µM (inactive)

I am curious: what GI50 value has been reported for `COc1cccc(/C=C\c2cc(OC)c(OC)c(OC)c2)c1` ?
22.6 µM (inactive)

###

tested on: HOP-62; test: NCI tumour cell line growth inhibition, 48 h
Active and inactive are the calls of the source. Cut-off read from the data, not from the text of the source: active = GI50 up to about 1.1 µM and inactive = higher.
Form entry, call: pick from 1 (active), 0 (inactive)

How did this test come out for `O=C(O)c1cccc(CN2CCCCC2)c1` ?
0

Outcome logged for `Cc1cc(C)c(C(=O)/C=C/c2ccccc2)c(C)c1` in this assay:
0

// return assay outcome for `CN(NC(=O)/C(=C\c1ccco1)NC(=O)c1ccccc1)c1cn[nH]c(=O)c1Cl`
0

For this molecule, state the assay outcome: `CN(C)C(=S)SCC(N)=O`
0

Hi team, can someone confirm the assay call for COc1cc(C2c3cc4c(cc3C(NCC(O)CO)C3COC(=O)[C@H]23)OCO4)cc(OC)c1OC (stereo partly specified) ?
1

Field: outcome | Entry: `CN(/N=C/c1cccc2cccnc12)c1ccc([N+](=O)[O-])cc1[N+](=O)[O-]`
0

###

tested on: 786-0; experiment: NCI tumour cell line growth inhibition, 48 h
Active and inactive are the calls of the source. Cut-off read from the data, not from the text of the source: active = GI50 up to about 1.1 µM and inactive = higher.
Bench note: report the call from Y = active, N = inactive

What classification did `COc1ccc2cc3c4cc(OC)c(OC)cc4ccn3c2c1` end up with in this test?
N

Please share the test call associated with `CCOC(=O)/C=C(/C(=O)OCC)n1ccc(=O)n(CC(=O)OCC)c1=O` .
Y

I would be grateful if you could indicate the recorded call for `O=C(CSCC(=O)N/N=C/c1ccccc1)N/N=C\c1ccccc1` .
N

Tell me the assay call for `CNn1c(C)n[nH]c1=O` please.
N

Identify the outcome logged in this assay for the compound shown: `S=C1/C(=N/c2ccccc2)N(c2ccccc2)/C(=N\c2ccccn2)N1c1ccccc1`
N

Could you please tell me the result logged for `Cc1c2cc[n+](C)cc2c(C)c2c1[nH]c1ccc(Cl)cc12` in this assay?
Y

What call does the record list for `Cc1ccc(NC(=O)/C(=N\Nc2ccc([N+](=O)[O-])cc2[N+](=O)[O-])C2C(=O)NC(=O)NC2=O)cc1` ?
N

Recorded test outcome, item `CC(C)N1CCN(c2ccncc2S(=O)(=O)N2CCCCC2)CC1`
N

How did this test come out for `C=CC(=O)N1C/C(=C\c2ccc([N+](=O)[O-])cc2)C(=O)/C(=C/c2ccc([N+](=O)[O-])cc2)C1` ?
Y

State the result this test recorded for Fc1cccc(CSc2ncnc3c2ncn3C2CCCS2)c1 (stereo not given) .
N

Any idea what this test logged for CC[C@@H]1CN(C)[C@H]2Cc3c([nH]c4ccccc34)C(=O)C[C@H]1C2C(=O)OC (stereo not given in full) ?
N

Any idea what this test logged for `O=S1(=O)CCN(c2ccccc2CC(c2c[nH]c3ccccc23)c2c[nH]c3ccccc23)CC1` ?
N

Test call for this compound, please: `COc1ccc(-c2cc(=O)c3c(OC)c(O)c(OC)cc3o2)cc1`
N

Outcome? `Cc1cccc(/C=N/NC(=S)N(C)CCc2ccccn2)n1`
Y

// param item: `CCCCCCNC(=O)C1=C(C)NC(C)=C(C(=O)NCCCCCC)C1` ; yields the recorded call
N

# lookup: test call for `Cc1ccc2c(=O)c(C(=O)Nn3c(C)csc3=S)c[nH]c2n1`
N

Dear colleague, could you share the recorded outcome for `O=C1CCCc2ccc3c(c21)CC1(Cc2ccccc2C1)C3` when you have a moment?
N

Short answer needed: outcome of this test for CC(=O)Oc1ccc2c(c1)CC[C@@H]1C2[C@@H](O[N+](=O)[O-])C[C@@]2(C)C1CC[C@@H]2O (stereo not given in full) ?
N

Answer briefly: the call reported for COC(=O)[C@@H]1c2cc3c(c(O)c2[C@@H](OC2OC(C)C(OC)C(C)(OC)C2OC)C[C@]1(C)O)C(=O)c1c(O)cc2c(c1C3=O)O[C@H]1O[C@]2(C)[C@H](O)[C@@H](N(C)C)[C@@H]1O (stereo not given in full) in this assay.
Y

Entry `O=C1C=CC(=O)c2c(O)nc(CBr)nc21` : call = ?
N

###

Would you mind telling me the reported GI50 of each entry?
tested on: SW-620; assay: NCI tumour cell line growth inhibition, 48 h
Active and inactive are the calls of the source. Rule as the data show it: active = GI50 up to about 1.1 µM and inactive = higher.

What does the data say about its GI50? Entry: `O=C(CCc1ccc(O)c(O)c1)OCCc1ccccc1`
31.1 µM (inactive)

State the recorded GI50 for this entry: CO[C@H](C(=O)O[C@H]1C(=O)N2CCC3CCC1C32C)c1ccccc1 (some centres undefined)
> 100 µM (inactive)

Any idea what its GI50 is? The compound is NC1CC(=O)c2cscc21 (centres undefined)
17.6 µM (inactive)

Need GI50 of `CONC(C)=O` , thanks.
> 100 µM (inactive)

Name the recorded GI50 for [O-][S+]1SC(=S)C2C=CC=NC21 (centres undefined) .
> 100 µM (inactive)

// lookup GI50 for C/C=C/C(C#N)O[Si](C)(C)C (centres undefined)
> 100 µM (inactive)

Would you mind telling me what GI50 value was observed for N#CCC(=O)N/N=C1\C(=O)N(c2ccc(Cl)cc2)C(=O)C(=O)C1c1nc2ccccc2o1 (centres undefined) ?
> 100 µM (inactive)

Which GI50 value is on record for COC1=C(Br)[C@H](O)[C@@]2(C=C1Br)CC(C(=O)NCCCOc1c(Br)cc(C(O)CNC(C)=O)cc1Br)=NO2 (some centres undefined) [APLYSINAMISINE III] ?
> 10 µM (inactive)

Quick one: GI50 of O=C1NC(=O)/C(=C/c2ccc(S(=O)(=O)N/N=C\C(O)C(O)C(O)C(O)CO)cc2)N1 (centres undefined) ?
> 100 µM (inactive)

###

test system: UACC-257; test: NCI tumour cell line growth inhibition, 48 h
Calls of active or inactive are those of the source. Rule as the data show it: active = GI50 up to about 1.1 µM and inactive = higher.
Your answer must be one of the following: class 1 (active), class 0 (inactive)

Query: recorded result category for `CNC(=S)N/N=C1\C(=O)N(CN2CCOCC2)c2ccc([N+](=O)[O-])cc21` in this test
class 0

So what was the verdict on `Nc1nc2cc(Cl)ccc2n1N` in this test?
class 0

Test call for this compound, please: CC(N)CC(=O)O (stereo not given)
class 0

What is the recorded call for this compound in the test? `O=C1C=C(Br)c2c(-c3ccccc3)oc3cccc1c23`
class 0

Record request — test call for `CN(C)C(=S)SCC(N)=O`
class 0

Just curious, what result did `O=S1(=O)CCN(c2ccccc2CC(c2c[nH]c3ccccc23)c2c[nH]c3ccccc23)CC1` get here?
class 0

Look up the recorded call for `O=C1c2n[nH]nc2C(=O)c2n[nH]nc21` in this test.
class 0

Give the logged outcome of this assay for the following compound: `CCc1nc(N)nc(N)c1-c1ccc(Cl)c(Cl)c1`
class 0

GET /call?item= `CCCC(=O)O[C@H]1C=C2C[C@@]34SS[C@]5(CC6=C[C@H](OC(C)=O)[C@@H]7O[C@@H]7[C@H]6N5C3=O)C(=O)N4[C@@H]2[C@H]2O[C@H]21` returns the recorded outcome of this test.
class 1

What is the recorded call for this compound in the test? `CCn1c(-c2ccc(C)cc2)cs/c1=N\C(P(=O)(O)O)P(=O)(O)O`
class 0
